Source listed as PubChem BioAssay AID504558.

Assay: EBV LMP1-driven NF-kappaB luciferase reporter inhibitors, primary screen, cell-based, luminescence, single point (AID 504558);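 note: 0% = neutral control wells and 100% = reference inhibitor control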
Conditions: LMP1-induced NF-kappaB luciferase reporter cells, at 12.5 µM, hits give high values
About 2,400 (0.69%) of roughly 350,000 compounds were called active. The list comes from a sample in which actives are over-represented; it also holds close analogues and randomly drawn compounds.
property-measured: inhibition (%)
Please respond with the number in % and leave the unit unwritten.

O=C(N/N=C/C=C/c1ccco1)c1cccs1; -24.5
C[C@H]1CN([C@@H](C)CO)C(=O)c2cc(-c3ccccc3F)cnc2O[C@H]1CN(C)C(=O)C1CCOCC1; -4.67
CCOC(=O)c1c(NC(=O)COC(=O)c2ccc(S(=O)(=O)C(F)F)cc2)sc(C(=O)N(C)C)c1C; 1.83
COc1ccc(-c2csc(Nc3cccc(C)n3)n2)cc1OC; 56.6
Cc1ccc(NC(=O)Cn2sc3ccccc3c2=O)cc1; 0.665

Q. Return inhibition (reported value) for this compound: Cc1cccc(NC(=O)COc2ccc(Br)cc2C)n1
A. -11.9

Q. Return inhibition (reported value) for this compound: CN(C)C(CNC(=O)c1cccc(S(=O)(=O)N2CCc3ccccc3C2)c1)c1ccccc1 (stereo not given)
A. -16.9

Q. Return inhibition (reported value) for this compound: Cc1ccc(-c2cc(C(=O)N/N=C/C=C/c3ccco3)c3ccccc3n2)cc1C
A. 60.7

Q. Return inhibition (reported value) for this compound: CCCCCCN1C[C@@H](O)[C@H](n2cc(COC(=O)c3ccccc3)nn2)C[C@@H]1c1ccc(Cl)cc1
A. 1.86

Q. Return inhibition (reported value) for this compound: CCCCN1C[C@H](c2ccc(Br)cc2)[C@@H](CC(=O)Nc2ccc(Br)cc2)C1=O
A. 1.53

###

Assay: EBV LMP1-driven NF-kappaB luciferase reporter inhibitors, primary screen, cell-based, luminescence, single point (AID 504558);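 note: 0% = neutral control wells and 100% = reference inhibitor control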
Settings: LMP1-induced NF-kappaB luciferase reporter cells, at 12.5 µM, hits give high values
The campaign covered roughly 350,000 compounds. About 2,400 (0.69%) were called active. The full list was thinned out, with actives kept by preference.
# key: entry, value: inhibition
Please respond with the number in % and leave the unit unwritten.

CC(OC(=O)c1cccc(S(=O)(=O)N2CCOCC2)c1)C(=O)NCC1CCCCC1 (centres undefined); -1.25
Cc1cc(Cl)ccc1C(=O)C1CCCN(C(=O)c2ccc3c(c2)OCO3)C1 (centres undefined); -1.16
CC(C)CCC(=O)Nc1cc(S(=O)(=O)N2CCOCC2)ccc1N1CCCC1; 0.721
CNC(=O)c1ccc(CN(C)C(=O)c2cc(C3CC3)nc3c2cnn3C(C)C)cc1; -3.68

Q. Return inhibition (reported value) for this compound: CCOC(=O)c1c(C)[nH]c(C)c1C(=O)COC(=O)/C=C/c1cccc([N+](=O)[O-])c1
A. 7.29

###

# key: entry, value: inhibition
Experiment: EBV LMP1-driven NF-kappaB luciferase reporter inhibitors, primary screen, cell-based, luminescence, single point (AID 504558);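 note: 0% = neutral control wells and 100% = reference inhibitor control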
Settings: LMP1-induced NF-kappaB luciferase reporter cells, at 12.5 µM, hits give high values
About 2,400 (0.69%) of roughly 350,000 compounds were called active. Shown is part of a subset that was picked to be rich in actives.
Please respond with the number in % and leave the unit unwritten.

CSCCC(NC(=O)c1ccco1)C(=O)Nc1cc(C)ccn1 (stereo not given); -34.2

Q. Return inhibition (reported value) for this molecule: CC(C)(C)N(Cc1ccccc1)C(=O)c1ccncc1
A. 11.5

Q. Return inhibition (reported value) for this molecule: COc1ccc(CC(=O)Nc2sc(Cc3ccccc3)c(C)c2C(N)=O)cc1
A. 0.44

Q. Return inhibition (reported value) for this molecule: C[C@H]1CN([C@@H](C)CO)C(=O)CCCn2cc(nn2)CO[C@@H]1CN(C)S(=O)(=O)c1cccc(C#N)c1
A. -4.24

Q. Return inhibition (reported value) for this molecule: COc1ccc(/C=C2\SC(=S)N(CCC(=O)N3CCOCC3)C2=O)cc1OC
A. 9.24
